- TEST_DETAILS: Confirmation and Secondary Assay for Modulators of Hemoglobin Beta Chain Splicing at IVS2 705 locus (AID 930);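 also: GFP fluorescence per well restored by corrected splicing of the IVS2-705 intron in EGFP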;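 as to activation: HeLa cells stably expressing the EGFP-705 splicing reporter; % of control where 0% means no effect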
- EXPERIMENTAL_CONTEXT: HeLa EGFP-705 splicing reporter, GFP fluorescence, 48 h; series mostly up to 46.1 µM
Calls of active or inactive are those of the source. Calls follow the shape of the dose curve; as a rule, active = well fitted activation curve with a large enough effect; inconclusive = small, poorly fitted or top-dose-only effect; inactive = flat fitted curve, though single readings scatter.
Give your call using only these classes: active, inactive

Please indicate how the test categorized O=C1c2ccccc2C(=O)c2c1ccc(O)c2O .
inactive

Please indicate how the test categorized Nc1ccc(N=Nc2ccccc2)c(N)n1 .
active

Please indicate how the test categorized Cc1cccc(C)c1NC(=O)C1CCCCN1C (centres undefined) .
inactive

Please indicate how the test categorized CC(=O)Nc1ccc(OC(=O)c2ccccc2O)cc1 .
inactive

Please indicate how the test categorized N#Cc1ccc2c(c1)N(CCCN1CCC(O)CC1)c1ccccc1S2 .
inactive

Please indicate how the test categorized O=C(O)[C@H]1C(=CCO)O[C@H]2CC(=O)N12 .
inactive

---

- TEST_DETAILS: Cell Viability - LYMP2-009 (AID 968);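 also: cells exposed to compound for 24 h at 37 °C; nearly all actives have a fitted effect of over 55% in size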
- EXPERIMENTAL_CONTEXT: LYMP2-009 lymphoblastoid cell viability; series mostly up to 92.2 µM
Records with an inconclusive call do not appear. Calls of active or inactive are those of the source. Calls follow the shape of the dose curve; as a rule, active = well fitted cell-killing curve with a large enough effect; inconclusive = small, poorly fitted or top-dose-only effect; inactive = flat fitted curve, though single readings scatter.
Give your call using only these classes: TRUE for active, FALSE for inactive

The examples below pair each entry with its known result.
Cc1ncc[nH]1; FALSE
C=C1C(CCl)(CCl)C2(Cl)C(Cl)C(Cl)C1(Cl)C2(Cl)Cl (stereo not drawn); TRUE
CCCCO; FALSE

Please indicate how the test categorized ClC(Cl)Cl .
FALSE

Please indicate how the test categorized COC(=O)c1ccccc1O .
FALSE

Please indicate how the test categorized CC/C=C\C/C=C\C/C=C\CCCCCCCC(=O)O .
TRUE

Please indicate how the test categorized CC(C)(C)CC(C)(C)c1ccc(OCCO)cc1 .
FALSE

Please indicate how the test categorized NCCN .
FALSE

---

- TEST_SYSTEM: Ubiquitin carboxyl-terminal hydrolase 1 (Homo sapiens) (UniProt O94782)
- Sequence (O94782 whole entry, looked up): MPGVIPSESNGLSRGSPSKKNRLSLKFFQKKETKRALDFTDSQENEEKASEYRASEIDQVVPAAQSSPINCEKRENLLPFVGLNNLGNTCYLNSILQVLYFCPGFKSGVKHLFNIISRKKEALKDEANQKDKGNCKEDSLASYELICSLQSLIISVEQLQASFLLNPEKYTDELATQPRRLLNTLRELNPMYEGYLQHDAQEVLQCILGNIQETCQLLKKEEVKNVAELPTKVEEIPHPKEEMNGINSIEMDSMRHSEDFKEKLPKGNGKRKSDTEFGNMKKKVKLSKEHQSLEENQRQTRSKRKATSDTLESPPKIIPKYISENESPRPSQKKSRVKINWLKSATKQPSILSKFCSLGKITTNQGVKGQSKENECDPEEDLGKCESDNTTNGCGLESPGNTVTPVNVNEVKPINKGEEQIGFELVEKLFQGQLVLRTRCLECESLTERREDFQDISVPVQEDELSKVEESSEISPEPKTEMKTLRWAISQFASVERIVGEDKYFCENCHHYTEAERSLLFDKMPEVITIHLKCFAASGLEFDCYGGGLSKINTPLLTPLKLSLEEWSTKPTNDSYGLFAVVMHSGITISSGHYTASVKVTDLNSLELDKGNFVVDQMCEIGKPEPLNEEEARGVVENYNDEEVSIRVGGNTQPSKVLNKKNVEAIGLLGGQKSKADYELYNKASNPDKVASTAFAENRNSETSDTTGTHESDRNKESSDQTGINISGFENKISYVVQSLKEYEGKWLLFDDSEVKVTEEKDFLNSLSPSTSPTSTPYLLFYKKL
- TEST_DETAILS: Inhibitors of USP1/UAF1: Pilot qHTS (AID 504865); also: nearly all actives have a fitted effect of over 35% in size
- EXPERIMENTAL_CONTEXT: purified USP1/UAF1, Ub-rhodamine cleavage fluorescence; series mostly up to 114 µM
Records with an inconclusive call do not appear. Active and inactive are the calls of the source. The call rests on the fitted dose curve; in most records, active means well fitted inhibition curve with a large enough effect; inconclusive means small, poorly fitted or top-dose-only effect; inactive means flat fitted curve, though single readings scatter.
Give your call using only these classes: yes for active, no for inactive

The examples below pair each entry with its known result.
FC(F)(F)COCC(F)(F)F; no
CO; no
[O]=[Bi][O][Bi]=[O]; no
O=C(O)COc1ccc(CCNS(=O)(=O)c2ccccc2)s1; no
CC(=O)Nc1ccc(OC(=O)c2ccccc2O)cc1; no

Please indicate how the test categorized FC(F)(F)C(F)(F)C(F)(F)C(F)(F)C(F)(F)C(F)(F)F .
no

Please indicate how the test categorized CSCCC(N)C(=O)O (configuration not stated) .
no

Please indicate how the test categorized CC(C)c1ncc([N+](=O)[O-])n1C .
no

Please indicate how the test categorized NC(=O)C1c2ccccc2CCc2ccccc21 .
no

Please indicate how the test categorized CO[C@H]1C[C@@H]2CC[C@@H](C)[C@@](O)(O2)C(=O)C(=O)N2CCCC[C@H]2C(=O)O[C@H]([C@H](C)C[C@@H]2CC[C@@H](OC(=O)C(C)(CO)CO)[C@H](OC)C2)CC(=O)[C@H](C)/C=C(\C)[C@@H](O)[C@@H](OC)C(=O)[C@H](C)C[C@H](C)/C=C/C=C/C=C/1C .
no

Please indicate how the test categorized c1ccc2c(c1)Sc1ccccc1N2CCN1CCCC1 .
no

Please indicate how the test categorized COc1ccc(/C=C/C(=O)O)cc1 .
no

Please indicate how the test categorized CC(=O)N[C@@H]1C(O[C@H]2O[C@H](C(=O)O)C(O)[C@H](O)[C@H]2O)[C@H](O)[C@@H](CO)O[C@H]1O[C@@H]1C(C(=O)O)O[C@@H](O[C@H]2[C@H](O)[C@@H](CO)OC(O)[C@@H]2NC(C)=O)[C@H](O)[C@H]1O (some centres not stated) .
no

Please indicate how the test categorized Cc1cc(C(=O)NCCc2ccc(S(=O)(=O)NC(=O)NN3CCCCCC3)cc2)no1 .
no

Please indicate how the test categorized C[C@]12CCC(=O)C[C@@H]1CC[C@@H]1[C@@H]2CC[C@]2(C)C=CC[C@@H]12 .
no

Please indicate how the test categorized CCCCCCCCCCCC(=O)N(CCO)CCO .
no

Please indicate how the test categorized C/C=C/C=C/C(=O)O .
no

Please indicate how the test categorized CC(C)(CO)[C@@H](O)C(=O)NCCC(=O)NCCSSCCNC(=O)CCNC(=O)[C@H](O)C(C)(C)CO .
no

Please indicate how the test categorized O=C(O)C1=C(CSc2nnnn2CS(=O)(=O)O)CS[C@@H]2[C@H](NC(=O)[C@H](O)c3ccccc3)C(=O)N12 .
no

Please indicate how the test categorized COC(=O)CC[C@H](N)C(=O)O .
no

Please indicate how the test categorized CCC(O)c1ccccc1 (configuration not stated) .
no

Please indicate how the test categorized CN(C)C(=O)CCSC(SCCC(=O)O)c1cccc(/C=C/c2ccc3ccc(Cl)cc3n2)c1 (configuration not stated) .
yes

---

- Test system: CAOV3
- TEST_DETAILS: Primary qHTS to identify gynecologic anti-cancer compounds using libraries of approved drugs and bioactive compounds (AID 1345084); also: nearly all actives have a fitted effect of over 55% in size
- EXPERIMENTAL_CONTEXT: Gynecologic cancer cell panel viability, ATPlite luminescence, 48 h; series mostly up to 57.5 µM
Results filed as inconclusive are left out. Activity calls are given as the source filed them. Calls follow the shape of the dose curve; as a rule, active = well fitted cell-killing curve with a large enough effect; inconclusive = small, poorly fitted or top-dose-only effect, or effect the other way; inactive = flat fitted curve, though single readings scatter.
Give your call using only these classes: active, inactive

The examples below pair each entry with its known result.
Nc1ccc(N=Nc2ccccc2)c(N)n1; inactive
C[C@H]1O[C@@H](O[C@H]2[C@@H](O)C[C@H](O[C@H]3[C@@H](O)C[C@H](O[C@H]4CC[C@@]5(C)[C@H](CC[C@@H]6[C@@H]5C[C@@H](O)[C@]5(C)[C@@H](C7=CC(=O)OC7)CC[C@]65O)C4)O[C@@H]3C)O[C@@H]2C)C[C@H](O)[C@@H]1O; active
C/C(=C\C(=O)OCCCCCCCCC(=O)O)C[C@@H]1OC[C@H](C[C@@H]2O[C@H]2[C@@H](C)[C@H](C)O)[C@@H](O)[C@H]1O; inactive
O=C1c2ccccc2C(=O)c2c1ccc(O)c2O; inactive
CO[C@H]1C[C@@H]2CC[C@@H](C)[C@@](O)(O2)C(=O)C(=O)N2CCCC[C@H]2C(=O)O[C@H]([C@H](C)C[C@@H]2CC[C@@H](OC(=O)C(C)(CO)CO)[C@H](OC)C2)CC(=O)[C@H](C)/C=C(\C)[C@@H](O)[C@@H](OC)C(=O)[C@H](C)C[C@H](C)/C=C/C=C/C=C/1C; inactive
C[C@]12CC[C@@H]3c4ccc(OC(=O)c5ccccc5)cc4CC[C@H]3[C@@H]1CC[C@@H]2O; inactive

Could you now look at the following compound, please?
Please indicate how the test categorized C=C1CC[C@H](O)CC1=C/C=C1\CCC[C@]2(C)[C@@H]([C@H](C)/C=C/[C@H](C)C(C)C)CC[C@@H]12 .
inactive

---

- Tested on: N140
- TEST_DETAILS: qHTS profiling for inhibitors of Plasmodium falciparum proliferation (AID 504749); also: nearly all actives have a fitted effect of over 60% in size; also: potency is read from the fitted curve at half-maximal effect
- EXPERIMENTAL_CONTEXT: P. falciparum in erythrocytes, SYBR Green DNA, 72 h; series mostly up to 28.7 µM
Records with an inconclusive call do not appear. Activity calls are given as the source filed them. Calls come from the whole dose curve; as a rule, active = well fitted inhibition curve with a large enough effect; inconclusive = small, poorly fitted or top-dose-only effect; inactive = flat fitted curve, though single readings scatter.
PROPERTY_NAME: Potency

Use these answered entries as a reference point.
CC1=CC(=C(c2ccc(N)cc2)c2ccc(N)cc2)C=CC1=N; 2.24 µM (active)
S=C=Nc1ccc(N=C=S)cc1; inactive
O=C(O)[C@H]1C(=CCO)O[C@H]2CC(=O)N12; inactive
CN1C(=O)C[C@@H](C(=O)N[C@@H](Cc2cnc[nH]2)C(=O)N2CCC[C@H]2C(N)=O)NC1=O; inactive

# return recorded Potency for entry C[C@]12CC[C@@H]3c4ccc(OC(=O)c5ccccc5)cc4CC[C@H]3[C@@H]1CC[C@@H]2O
inactive

# return recorded Potency for entry CC[C@H]1OC(=O)[C@H](C)[C@@H](O[C@H]2C[C@@](C)(OC)[C@@H](O)[C@H](C)O2)[C@H](C)[C@@H](O[C@@H]2O[C@H](C)C[C@H](N(C)C)[C@H]2O)[C@](C)(O)C[C@@H](C)CN(C)[C@H](C)[C@@H](O)[C@]1(C)O
8.91 µM (active)

---

- TEST_DETAILS: qHTS profiling for inhibitors of Plasmodium falciparum proliferation (AID 504749); also: nearly all actives have a fitted effect of over 60% in size;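 as to activity, negative = inhibition: 0% = DMSO vehicle and full inhibition = artemisinin control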
- EXPERIMENTAL_CONTEXT: P. falciparum in erythrocytes, SYBR Green DNA, 72 h; at 28.7 µM (top of the series); parasite line B
Results filed as inconclusive are left out.
PROPERTY_NAME: activity, negative = inhibition (%)
State just the number; it will be interpreted in %.

CN(C)C=Nc1c(I)cc(I)c(CCC(=O)O)c1I; 1.95
Cc1cc(=O)c(C(=O)N[C@@H](C(=O)N[C@@H]2C(=O)N3C(C(=O)O)=C(CSc4nnnn4C)CS[C@H]23)c2ccc(O)cc2)c[nH]1; 9.95
Nc1ncnc2c1ncn2[C@H]1CC[C@@H](CO)O1; 9.47
CN1C(C(=O)Nc2ccccn2)C(=O)c2sc(Cl)cc2S1(=O)=O (configuration not stated); -14.1
CCCCCCCCCCCC(=O)N(CCO)CCO; 9.6

# return recorded activity, negative = inhibition for entry C=CCN1CCCC1CNC(=O)c1cc(S(N)(=O)=O)cc(OC)c1OC (configuration not stated)
8.33

# return recorded activity, negative = inhibition for entry CCCOC(=O)c1ccccc1O
6.22

# return recorded activity, negative = inhibition for entry C(=C\c1ccncc1)/c1ccccc1
-9.52
